Source listed as ChEMBL document CHEMBL4765276.

Biological target: Lysosomal acid glucosylceramidase (Homo sapiens)
Sequence (P04062 whole entry): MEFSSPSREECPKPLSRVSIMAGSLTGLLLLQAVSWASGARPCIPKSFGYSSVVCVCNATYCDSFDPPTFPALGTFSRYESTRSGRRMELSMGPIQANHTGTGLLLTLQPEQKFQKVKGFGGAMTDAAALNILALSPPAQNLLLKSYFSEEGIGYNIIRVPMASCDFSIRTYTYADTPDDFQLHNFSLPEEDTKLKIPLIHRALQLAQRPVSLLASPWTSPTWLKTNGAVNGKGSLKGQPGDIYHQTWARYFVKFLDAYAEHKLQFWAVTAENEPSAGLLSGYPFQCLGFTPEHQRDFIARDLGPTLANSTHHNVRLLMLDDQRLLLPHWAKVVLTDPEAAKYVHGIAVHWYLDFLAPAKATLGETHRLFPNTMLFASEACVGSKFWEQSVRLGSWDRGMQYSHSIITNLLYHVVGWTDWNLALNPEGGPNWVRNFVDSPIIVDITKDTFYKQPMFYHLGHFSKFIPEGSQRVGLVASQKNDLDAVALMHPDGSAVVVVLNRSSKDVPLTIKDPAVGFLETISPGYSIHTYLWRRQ
Experiment: Competitive inhibition of human recombinant lysosomal GCase using 4-methylumbelliferyl-beta-D-glucopyranoside as substrate preincubated for 45 mins followed by substrate addition and measured after 30 mins by fluorescence spectrophotometry based Lineweaver-Burk plot analysis
# Ki annotations
readout-label: Ki (µM)

>>> observed_result("NC(COCc1cn(CCOCCOc2ccc(-c3cn(C[C@H]4NC[C@@H](O)[C@H]4O)nn3)cc2)nn1)(COCc1cn(CCOCCOc2ccc(-c3cn(C[C@H]4NC[C@@H](O)[C@H]4O)nn3)cc2)nn1)COCc1cn(CCOCCOc2ccc(-c3cn(C[C@H]4NC[C@@H](O)[C@H]4O)nn3)cc2)nn1")
5.4
>>> observed_result("NC(COCc1cn(CCOCCOc2ccc(-c3cn(C[C@@H]4NC[C@@H](O)[C@H]4O)nn3)cc2)nn1)(COCc1cn(CCOCCOc2ccc(-c3cn(C[C@@H]4NC[C@@H](O)[C@H]4O)nn3)cc2)nn1)COCc1cn(CCOCCOc2ccc(-c3cn(C[C@@H]4NC[C@@H](O)[C@H]4O)nn3)cc2)nn1")
55
>>> observed_result("COc1ccc(-c2cn(C[C@@H]3NC[C@@H](O)[C@H]3O)nn2)cc1")
55
>>> observed_result("COc1ccc(-c2cn(C[C@H]3NC[C@@H](O)[C@H]3O)nn2)cc1")
19
